Where do these numbers come from? They come from patent US6710080B2.

- Test system: phenylquinone-induced writhing in mice
- assayOverview: Writhing test in mice
- Format: in vivo
- statedConditions: Mus musculus; male NMRI mice; 10 mg/kg intravenously 10 minutes before phenylquinone i.p.; writhing counted 5-20 minutes after phenylquinone; read-out: % Inhibition of the writhing reaction with 10 mg/kg intravenously
Where a name gives a salt, the structure may show the parent alone.
molecules and their reported inhibition at 10 mg/kg
Answer with a number only, understood to be in %.

Example results:
molecule: CN(C)Cc1ccccc1-c1ccc(F)c(F)c1 [Example 19, hydrochloride]
valueObserved: 86
--
molecule: CC(=O)Nc1ccc(OC(F)(F)F)cc1-c1ccccc1CN(C)C [Example 42, hydrochloride]
valueObserved: 44
--
molecule: CN(C)Cc1ccccc1-c1cc(F)cc(F)c1 [Example 39, hydrochloride]
valueObserved: 80
--
molecule: COc1cccc(-c2ccccc2CN(C)C)c1 [Example 1, hydrochloride]
valueObserved: 53
--
molecule: CC(=O)c1cccc(-c2ccccc2CCN(C)C)c1 [Example 32, hydrochloride]
valueObserved: 98
--
molecule: CN(C)Cc1ccccc1-c1cc(Cl)cc(Cl)c1 [Example 17, hydrochloride]
valueObserved: 90

Turning now to a further molecule:
Exercise: # lookup: inhibition at 10 mg/kg of CN(C)Cc1ccccc1-c1ccccc1F.Cl [Example 6, hydrochloride]
Solution: 88

###

- System: phenylquinone-induced writhing in mice
- assayOverview: Writhing test in mice
- Type: in vivo
- statedConditions: Mus musculus; male NMRI mice; 10 mg/kg intravenously 10 minutes before phenylquinone i.p.; writhing counted 5-20 minutes after phenylquinone; read-out: % Inhibition of the writhing reaction with 10 mg/kg intravenously
Where a name gives a salt, the structure may show the parent alone.
Label y for high-side inhibition at 10 mg/kg (at or above 90%) and n for low-side inhibition at 10 mg/kg (below it).

See these solved cases before continuing.
molecule: CN(C)Cc1ccccc1-c1cccc([N+](=O)[O-])c1 [Example 37, hydrochloride]
targetEntity: phenylquinone-induced writhing in mice
classLabel: n

molecule: CN(C)Cc1ccccc1-c1ccc(N)c(O)c1 [Example 38, dihydrochloride]
targetEntity: phenylquinone-induced writhing in mice
classLabel: n

molecule: CN(C)Cc1ccccc1-c1ccc(F)cc1.Cl [Example 8, hydrochloride]
targetEntity: phenylquinone-induced writhing in mice
classLabel: n

molecule: CN(C)Cc1ccccc1-c1ccc(F)c(C(F)(F)F)c1.Cl [Example 20, hydrochloride]
targetEntity: phenylquinone-induced writhing in mice
classLabel: n

molecule: CN(C)Cc1ccccc1-c1cc(OC(F)(F)F)ccc1N [Example 41, dihydrochloride]
targetEntity: phenylquinone-induced writhing in mice
classLabel: n

Exercise: Check if inhibition at 10 mg/kg >= 90% (inclusive). Item: CN(C)Cc1ccccc1-c1cccc(Cl)c1.Cl [Example 5, hydrochloride]
Solution: n

Exercise: What about CN(C)CCc1ccccc1-c1ccc(Cl)c(O)c1 [Example 36, hydrochloride] ?
Solution: y

Exercise: What about CN(C)Cc1ccccc1-c1ccc([N+](=O)[O-])c(C(F)(F)F)c1 [Example 18, hydrochloride] ?
Solution: n

Exercise: What about CC(=O)Nc1ccc(-c2ccccc2CN(C)C)cc1OC(F)(F)F.Cl [Example 22, hydrochloride] ?
Solution: n

Exercise: What about CN(C)Cc1ccccc1-c1cccc(C(F)F)c1.Cl [Example 13, hydrochloride] ?
Solution: n

Exercise: What about CC(C)Oc1cccc(-c2ccccc2CN(C)C)c1 [Example 23, hydrochloride] ?
Solution: y

Exercise: What about CN(C)Cc1ccccc1-c1cccc(O)c1.Cl [Example 3, hydrochloride] ?
Solution: y

###

- System: phenylquinone-induced writhing in mice
- assayOverview: Writhing test in mice
- Format: in vivo
- statedConditions: Mus musculus; male NMRI mice; 10 mg/kg intravenously 10 minutes before phenylquinone i.p.; writhing counted 5-20 minutes after phenylquinone; read-out: % Inhibition of the writhing reaction with 10 mg/kg intravenously
- Experimental: The analgesic activity was investigated on phenylquinone-induced writhing in mice (modified by I. C. Hendershot, J. Forsaith, J. Pharmacol. Exp. Ther. 125, 237-240 (1959)). Male NMRI mice weighing 25-30 g were used for this. […] The number of pain-induced extension movements (so-called writhing reactions=straightening of the body with stretching out of the hind extremities) 5-20 minutes after the administration of phenylquinone was counted by means of a push-button counter. […]
Counter-ions that a name gives are not always drawn.
compounds and their reported inhibition at 10 mg/kg
Answer with a number only, understood to be in %.

Example results:
compound: CN(C)Cc1ccccc1-c1ccc(Cl)c(Cl)c1.Cl [Example 16, hydrochloride]
inhibition at 10 mg/kg / %: 89
--
compound: COc1cc(-c2ccccc2CCN(C)C)ccc1Cl [Example 35, hydrochloride]
inhibition at 10 mg/kg / %: 88
--
compound: CN(C)Cc1ccccc1-c1ccccc1C=O.Cl [Example 12, hydrochloride]
inhibition at 10 mg/kg / %: 89

Exercise: # lookup: inhibition at 10 mg/kg of COc1ccc(-c2ccccc2CCN(C)C)cc1OC [Example 33, hydrochloride]
Solution: 89

Exercise: What about CN(C)Cc1ccccc1-c1ccc(Cl)cc1.Cl [Example 2, hydrochloride] ?
Solution: 89

Exercise: What about COc1ccccc1-c1ccccc1CN(C)C.Cl [Example 4, hydrochloride] ?
Solution: 75

Exercise: What about CC(C)Oc1cccc(-c2ccccc2CCN(C)C)c1 [Example 34, hydrochloride] ?
Solution: 80

Exercise: What about CN(C)Cc1ccccc1-c1cccc(F)c1.Cl [Example 7, hydrochloride] ?
Solution: 90

Exercise: What about CN(C)Cc1ccccc1-c1ccc(S(C)(=O)=O)cc1 [Example 27, hydrochloride] ?
Solution: 89

Exercise: What about COc1ccc(OC)c(-c2ccccc2CN(C)C)c1 [Example 40, hydrochloride] ?
Solution: 57

Exercise: What about COc1cc(-c2ccccc2CN(C)C)ccc1Cl.Cl [Example 21, hydrochloride] ?
Solution: 53

Exercise: What about CN(C)Cc1ccccc1-c1ccc(Cl)c(O)c1 [Example 25, hydrochloride] ?
Solution: 74
